The entries below are paired with their reported Granzyme A secretion, CD8 T cells, at 1 µM.
- System: T1, IL10Rα/IL2Rγ receptor (human) (UniProt Q13651)
- T1 sequence (looked up) 1: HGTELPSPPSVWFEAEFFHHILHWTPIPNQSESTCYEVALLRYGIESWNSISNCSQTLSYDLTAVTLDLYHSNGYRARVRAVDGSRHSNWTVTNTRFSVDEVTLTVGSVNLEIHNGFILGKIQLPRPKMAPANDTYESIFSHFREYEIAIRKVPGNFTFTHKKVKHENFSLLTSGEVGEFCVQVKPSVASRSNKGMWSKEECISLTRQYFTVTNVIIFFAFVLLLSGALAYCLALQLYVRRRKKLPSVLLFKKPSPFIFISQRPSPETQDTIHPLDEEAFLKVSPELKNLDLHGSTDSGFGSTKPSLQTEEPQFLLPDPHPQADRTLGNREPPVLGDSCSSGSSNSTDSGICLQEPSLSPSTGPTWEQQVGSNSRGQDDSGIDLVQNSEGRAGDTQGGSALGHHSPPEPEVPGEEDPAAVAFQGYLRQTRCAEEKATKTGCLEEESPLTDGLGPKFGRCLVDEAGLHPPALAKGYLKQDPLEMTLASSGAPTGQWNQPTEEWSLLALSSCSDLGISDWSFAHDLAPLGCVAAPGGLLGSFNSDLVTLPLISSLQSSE
- T1 sequence (looked up) 2: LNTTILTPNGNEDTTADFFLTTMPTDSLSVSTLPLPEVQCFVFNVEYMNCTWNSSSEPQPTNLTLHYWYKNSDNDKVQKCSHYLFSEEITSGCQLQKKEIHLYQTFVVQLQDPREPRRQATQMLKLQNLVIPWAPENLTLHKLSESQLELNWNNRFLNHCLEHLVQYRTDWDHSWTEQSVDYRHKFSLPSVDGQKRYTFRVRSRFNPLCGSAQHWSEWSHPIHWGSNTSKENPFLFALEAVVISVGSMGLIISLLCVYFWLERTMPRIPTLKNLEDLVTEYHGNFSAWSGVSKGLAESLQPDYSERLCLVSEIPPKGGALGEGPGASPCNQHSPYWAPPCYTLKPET
- Procedure summary: cell-based or functional assay
Supply the numeric figure in pg/mL, leaving out any unit text.

# annotated cases, reported Granzyme A secretion, CD8 T cells, at 1 µM shown
# Binder, Observed result
data = [
    ("hIL10Ra_VHH14 - hIL2Rg_VHH19, linker GGGS, tag his (bispecific antibody, not shown: small tags and cut ends) QVQLQESGGGSVQAGGSLRLSCGASGYTYSSYCMGWFRQVPGKEREGVAVIDSDGSTSYADSVKGRFTISKDNGKNTLYLQMNSLKPEDTAMYYCAADLGHYRPPCGVLYLGMDYWGKGTQVTVSSGGGSQVQLQESGGGSVQAGGSLRLSCTASGFTFDDREMNWYRQAPGNECELVSTISSDGSTYYADSVKGRFTISQDNAKNTVYLQMDSVKPEDTAVYYCAADFMIAIQAPGAGCWGQGTQVTVSS", 26400),
    ("hIL10Ra_VHH14 - hIL2Rg_VHH19, linker GGGS, tag Fc (bispecific antibody, not shown: a dimerising Fc or GST) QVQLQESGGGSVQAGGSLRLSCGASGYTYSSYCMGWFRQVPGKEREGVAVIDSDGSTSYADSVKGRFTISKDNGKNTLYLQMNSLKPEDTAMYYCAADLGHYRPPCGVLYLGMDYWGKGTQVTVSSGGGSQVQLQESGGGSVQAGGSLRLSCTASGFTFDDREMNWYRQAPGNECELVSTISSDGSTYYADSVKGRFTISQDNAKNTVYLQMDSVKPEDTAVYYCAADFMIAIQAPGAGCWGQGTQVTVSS", 29800),
    ("hIL10Ra_VHH14 - hIL2Rg_VHH19, No linker, tag his (bispecific antibody, not shown: small tags and cut ends) QVQLQESGGGSVQAGGSLRLSCGASGYTYSSYCMGWFRQVPGKEREGVAVIDSDGSTSYADSVKGRFTISKDNGKNTLYLQMNSLKPEDTAMYYCAADLGHYRPPCGVLYLGMDYWGKGTQVTVSSQVQLQESGGGSVQAGGSLRLSCTASGFTFDDREMNWYRQAPGNECELVSTISSDGSTYYADSVKGRFTISQDNAKNTVYLQMDSVKPEDTAVYYCAADFMIAIQAPGAGCWGQGTQVTVSS", 24400),
]

Inquiry: Tell me measured Granzyme A secretion, CD8 T cells, at 1 µM for hIL10Ra_VHH14 - hIL2Rg_VHH19, linker …, tag his (bispecific antibody, not shown: small tags and cut ends) QVQLQESGGGSVQAGGSLRLSCGASGYTYSSYCMGWFRQVPGKEREGVAVIDSDGSTSYADSVKGRFTISKDNGKNTLYLQMNSLKPEDTAMYYCAADLGHYRPPCGVLYLGMDYWGKGTQVTVSSGGSGGSGGSGQVQLQESGGGSVQAGGSLRLSCTASGFTFDDREMNWYRQAPGNECELVSTISSDGSTYYADSVKGRFTISQDNAKNTVYLQMDSVKPEDTAVYYCAADFMIAIQAPGAGCWGQGTQVTVSS please.
Reply text: 31000

Sourced from patent US20250163162A1
